Measured values drawn from the supplement of paper PMC9112550 for this set.

# System: Escherichia coli TOP10;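 note: peptides expressed intracellularly from a pBAD plasmid library in pooled LB shake-flask culture, induced with 0.3% L-arabinose, DNA abundance read by NGS, three biological replicates, DESeq2 with apeglm shrinkage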
# protocol summary: shrunken log2 fold change of peptide-encoding DNA abundance (4.5 h post-induction vs induction); higher = less antimicrobial activity (less host growth inhibition)
# measurement parameters: time post-induction: 4.5 h; library: site-saturation at positions 5, 18, 19, 20
// class assignment uses shrunken log2 fold change with these ranges: bin A = under -0.1, bin B = from -0.1 up to 0.1, bin C = 0.1 and over

Take a look at these entries with their results.
RRIRVRPPRLPRPRPRPECGPRP | bin C
RRIRPRPPRLPRPRPRPGVRPRP | bin C
RRIRNRPPRLPRPRPRPFVYPRP | bin B

Which category fits this record: `RRIRNRPPRLPRPRPRPIFCPRP` bin B

Which category fits this record: `RRIRIRPPRLPRPRPRPYRTPRP` bin B

Which category fits this record: `RRIRRRPPRLPRPRPRPHVLPRP` bin B

Which category fits this record: `RRIRKRPPRLPRPRPRPEGDPRP` bin C

Which category fits this record: `RRIRPRPPRLPRPRPRPIHTPRP` bin A

Which category fits this record: `RRIRRRPPRLPRPRPRPFINPRP` bin A

Which category fits this record: `RRIRCRPPRLPRPRPRPYCPPRP` bin A

Which category fits this record: `RRIRHRPPRLPRPRPRPRCVPRP` bin C

Which category fits this record: `RRIRPRPPRLPRPRPRPVESPRP` bin B

Which category fits this record: `RRIRWRPPRLPRPRPRPMTFPRP` bin A

Which category fits this record: `RRIRQRPPRLPRPRPRPHFMPRP` bin B
